TARGET UNDER TEST: acetylcholinesterase (AChE) (Rattus norvegicus, UniProt P37136)
Construct: from tissue; host or cells: homogenate of rat cortex
Sequence (P37136 32-614): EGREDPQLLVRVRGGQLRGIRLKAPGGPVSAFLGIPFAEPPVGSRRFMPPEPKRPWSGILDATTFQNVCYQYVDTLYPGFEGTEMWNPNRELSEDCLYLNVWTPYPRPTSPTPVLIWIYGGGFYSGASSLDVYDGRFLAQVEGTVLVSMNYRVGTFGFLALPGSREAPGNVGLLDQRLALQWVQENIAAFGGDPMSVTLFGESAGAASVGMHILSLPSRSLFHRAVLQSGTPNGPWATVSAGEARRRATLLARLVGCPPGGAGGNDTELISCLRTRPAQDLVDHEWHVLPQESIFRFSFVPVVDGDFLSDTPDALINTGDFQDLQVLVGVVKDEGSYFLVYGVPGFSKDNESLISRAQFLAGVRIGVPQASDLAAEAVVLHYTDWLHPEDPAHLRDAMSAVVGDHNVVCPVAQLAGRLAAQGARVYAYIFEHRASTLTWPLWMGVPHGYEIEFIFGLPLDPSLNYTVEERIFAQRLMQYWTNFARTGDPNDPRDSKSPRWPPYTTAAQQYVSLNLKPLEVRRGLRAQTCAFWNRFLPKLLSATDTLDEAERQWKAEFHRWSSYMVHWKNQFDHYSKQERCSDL
ASSAY METHOD TEXT: biochemical
Format: biochemical
CONDITION LABEL: read-out: concentration for inhibition of 50% of enzyme activity (IC50) acetylcholinesterase (AChE); Table 2; AChE taken from homogenate of rat's cortex
ENDPOINT: IC50

Examples from the recorded data:
MOLECULE	IC50
CC=C1C2C=C(C)CC1(NC(=O)c1ccccn1)c1ccc(=O)[nH]c1C2 (stereo not drawn)	126 nM
CC=C1C2C=C(C)CC1(NC(=O)CCC(=O)O)c1ccc(=O)[nH]c1C2 (stereo not drawn)	348 nM

Task: Any idea what IC50 was measured for CC=C1C2C=C(C)CC1(NC(=O)c1ccccc1C(=O)O)c1ccc(=O)[nH]c1C2 (stereo not drawn) ?
Result: 631 nM
